assay: Cytotoxicity against human MKN45 cells after 72 hrs by MTT assay; format: functional, cell-based; conditions: MKN-45, 72 h
readoutName: pIC50
Answers are plain numbers, as −log10 of the molar value.

For every record below, what is its pIC50?
1. CCN(CC)CCNc1nc(-c2ccc(NC(=O)Nc3ccc(Cl)cc3)cc2)nc2ccsc12
2. CN(C)CCNc1nc(-c2ccc(NC(=O)Nc3ccccc3Cl)cc2)nc2c(Cl)c(Cl)sc12
3. Cc1ccc(NC(=O)Nc2ccc(-c3nc(NCCCN(C)C)c4sc(Cl)c(Cl)c4n3)cc2)cc1
4. CCN(CC)CCCNc1nc(-c2ccc(NC(=O)Nc3ccccc3F)cc2)nc2ccsc12

a:
6.43
5.93
5.43
6.24
